study_target: Human Recombinant Cyclooxygenase-2 (Homo sapiens)
Construct: made in house; host or cells: COS cells (transient expression; microsomes prepared after 66 hours)
Sequence (P35354 18-604): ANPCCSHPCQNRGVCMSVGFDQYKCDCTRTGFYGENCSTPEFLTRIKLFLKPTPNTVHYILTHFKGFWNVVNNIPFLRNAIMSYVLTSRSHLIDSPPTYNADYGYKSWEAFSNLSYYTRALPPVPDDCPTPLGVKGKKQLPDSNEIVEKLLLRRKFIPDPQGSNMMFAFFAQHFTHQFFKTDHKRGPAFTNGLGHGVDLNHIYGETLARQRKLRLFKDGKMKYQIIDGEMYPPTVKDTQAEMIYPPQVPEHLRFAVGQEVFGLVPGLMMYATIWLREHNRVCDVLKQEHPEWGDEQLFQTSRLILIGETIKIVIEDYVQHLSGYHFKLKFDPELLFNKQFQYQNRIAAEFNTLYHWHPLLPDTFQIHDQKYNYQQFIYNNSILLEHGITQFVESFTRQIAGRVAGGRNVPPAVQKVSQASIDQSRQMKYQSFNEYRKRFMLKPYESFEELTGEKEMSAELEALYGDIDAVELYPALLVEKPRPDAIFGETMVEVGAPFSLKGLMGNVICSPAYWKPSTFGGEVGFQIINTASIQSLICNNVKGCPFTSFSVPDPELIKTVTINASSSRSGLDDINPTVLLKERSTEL
experiment: Inhibitory activity on human recombinant cyclooxygenase-2 microsomes from COS cells (PGE2 ELISA)
Assay type: biochemical
experimental_conditions: ratio of IC50 COX-1/COX-2
Listed compounds paired with reported Selectivity (COX-1/COX-2)

| compound | study_target | Selectivity (COX-1/COX-2) |
| --- | --- | --- |
| Cc1cc(-c2ccc(S(N)(=O)=O)cc2)n(-c2ccc(Cl)c(Cl)c2)c1 | Human Recombinant Cyclooxygenase-2 (Homo sapiens) | 370 |
| Cc1cc(-c2ccc(S(N)(=O)=O)cc2)n(-c2ccc(F)cc2)c1 | Human Recombinant Cyclooxygenase-2 (Homo sapiens) | 3696 |
| Cc1ccc(-n2cc(C)cc2-c2ccc(S(N)(=O)=O)cc2)cc1 | Human Recombinant Cyclooxygenase-2 (Homo sapiens) | 332 |
| COc1ccc(-c2cc(C)cn2-c2ccc(S(C)(=O)=O)cc2)cc1 | Human Recombinant Cyclooxygenase-2 (Homo sapiens) | 2273 |
| Cc1cc(-c2ccc(S(N)(=O)=O)cc2)n(-c2ccc3c(c2)OCO3)c1 | Human Recombinant Cyclooxygenase-2 (Homo sapiens) | 165 |

###

study_target: Cyclooxygenase-1 from Ram Seminal Vesicle Microsomes (RSVM) (Ovis aries)
Construct: ram seminal vesicles were homogenised by a blender; from tissue; host or cells: ram seminal vesicles (microsomes)
Sequence (P05979 25-600): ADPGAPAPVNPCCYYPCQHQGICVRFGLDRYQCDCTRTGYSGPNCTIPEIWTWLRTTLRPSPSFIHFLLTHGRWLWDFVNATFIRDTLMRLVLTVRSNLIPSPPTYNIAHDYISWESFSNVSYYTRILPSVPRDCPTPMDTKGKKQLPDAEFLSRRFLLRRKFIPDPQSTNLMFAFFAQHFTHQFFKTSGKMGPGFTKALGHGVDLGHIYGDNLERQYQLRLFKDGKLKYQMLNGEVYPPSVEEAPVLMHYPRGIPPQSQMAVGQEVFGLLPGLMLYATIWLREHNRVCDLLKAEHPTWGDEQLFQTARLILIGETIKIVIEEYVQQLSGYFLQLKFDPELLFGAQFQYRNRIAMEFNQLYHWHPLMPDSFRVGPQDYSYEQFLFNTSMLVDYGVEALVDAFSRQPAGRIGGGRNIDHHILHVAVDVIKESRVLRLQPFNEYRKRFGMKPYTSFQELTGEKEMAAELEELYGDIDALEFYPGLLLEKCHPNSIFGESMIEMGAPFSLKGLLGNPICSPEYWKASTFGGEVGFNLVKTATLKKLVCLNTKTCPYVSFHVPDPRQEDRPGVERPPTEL
experiment: Inhibitory activity on cyclooxygenase-1 from ram seminal vesicle microsomes (PGE2 ELISA)
Assay type: biochemical
experimental_conditions: PGE2 formation, read-out: Inhibitory Effect on COX-1[IC50(μM)]
measurement_type: IC50 (µM)

| compound | uom | qualifier_operator | value_measured |
| --- | --- | --- | --- |
| Cc1ccc(-n2cc(C)cc2-c2ccc(S(N)(=O)=O)cc2)cc1 | µM | = | 6.3 |
| COc1ccc(-c2c(C)ccn2-c2ccc(S(N)(=O)=O)cc2)cc1 | µM | = | 3 |
| COc1ccc(-n2cc(C)cc2-c2ccc(S(N)(=O)=O)cc2)cc1 | µM | = | 1.5 |
| Cc1cc(-c2ccc(S(C)(=O)=O)cc2)n(-c2ccc(C)c(C)c2)c1 | µM | > | 100 |
| Cc1ccc(-c2ccccc2)n1-c1ccc(S(N)(=O)=O)cc1 [Compound A, reference compound] | µM | > | 100 |
| Cc1cc(-c2ccc(S(N)(=O)=O)cc2)n(-c2ccc(F)cc2)c1Cl | µM | > | 100 |
| Cc1cc(-c2ccc(S(N)(=O)=O)cc2)n(-c2ccc(F)c(Cl)c2)c1 | µM | = | 6 |
| COc1ccc(-c2cc(C)cn2-c2ccc(S(N)(=O)=O)cc2)cc1 | µM | > | 100 |

###

Listed molecules paired with reported Selectivity (COX-1/COX-2)
study_target: Human Recombinant Cyclooxygenase-2 (Homo sapiens)
Construct: made in house; host or cells: COS cells (transient expression; microsomes prepared after 66 hours)
experiment: Inhibitory activity on human recombinant cyclooxygenase-2 microsomes from COS cells (PGE2 ELISA)
Format: biochemical
experimental_conditions: ratio of IC50 COX-1/COX-2

| compound | Selectivity (COX-1/COX-2) |
| --- | --- |
| COc1ccc(-c2cc(C)cn2-c2ccc(S(N)(=O)=O)cc2)cc1 | >6250 |
| Cc1cc(-c2ccc(S(C)(=O)=O)cc2)n(-c2ccc(C)c(C)c2)c1 | >5556 |
| Cc1cc(-c2ccc(S(N)(=O)=O)cc2)n(-c2ccc(F)cc2)c1Cl | >4348 |
| Cc1cc(-c2ccc(S(N)(=O)=O)cc2)n(-c2ccc(F)c(Cl)c2)c1 | >600 |
